Listing of recorded Inhibition potency by entry.
Molecular target: S-adenosylmethionine synthetase (MAT 1 and MAT 2) (Rattus norvegicus) (UniProt P13444+P18298)
Test: Inhibitory potency against rat Methionine adenosyltransferase was reported
Type: protein assay

COMPOUND_SMILES: CSc1nc(N)c2ncn([C@@H]3O[C@H](COP(=O)(O)OP(=O)(O)OP(=O)(O)O)[C@@H](O)[C@H]3O)c2n1
Inhibition potency: 1.27
--
COMPOUND_SMILES: CSc1nc2c(N)ncnc2n1[C@@H]1O[C@H](COP(=O)(O)OP(=O)(O)OP(=O)(O)O)[C@@H](O)[C@H]1O
Inhibition potency: 0.7
--
COMPOUND_SMILES: Nc1ncnc2c1ncn2[C@@H]1O[C@H](COP(=O)(O)OP(=O)(O)NP(=O)(O)O)[C@@H](O)[C@H]1O
Inhibition potency: 35
--
COMPOUND_SMILES: Nc1ncnc2c1ncn2[C@@H]1O[C@H](COP(=O)(O)CP(=O)(O)OP(=O)(O)O)[C@@H](O)[C@H]1O
Inhibition potency: 0.41

* * *

Listing of recorded Inhibition potency by entry.
Target: S-adenosylmethionine synthase isoform type-2 (Rattus norvegicus) (UniProt P18298)
Sequence (P18298 whole entry, canonical isoform): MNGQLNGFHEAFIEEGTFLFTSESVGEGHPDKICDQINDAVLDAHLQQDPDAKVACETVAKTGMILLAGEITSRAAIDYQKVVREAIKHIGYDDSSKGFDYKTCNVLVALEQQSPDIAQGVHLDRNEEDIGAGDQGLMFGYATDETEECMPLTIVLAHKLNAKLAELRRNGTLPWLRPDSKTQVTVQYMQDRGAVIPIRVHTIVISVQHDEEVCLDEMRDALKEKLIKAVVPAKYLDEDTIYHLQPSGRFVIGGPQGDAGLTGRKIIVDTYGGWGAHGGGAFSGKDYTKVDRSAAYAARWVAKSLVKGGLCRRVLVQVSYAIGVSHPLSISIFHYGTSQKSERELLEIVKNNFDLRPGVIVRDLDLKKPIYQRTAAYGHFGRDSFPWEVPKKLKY
Test: Inhibitory potency against rat Methionine adenosyltransferase II
MEASURED_PROPERTY: Inhibition potency

MOLECULE: CO[C@H]1[C@@H](O)[C@H](n2cnc3c(N)ncnc32)O[C@@H]1COP(=O)(O)OP(=O)(O)OP(=O)(O)O
SYSTEM_NAME: S-adenosylmethionine synthase isoform type-2 (Rattus norvegicus) (UniProt P18298)
RECORDED_MEASUREMENT: 0.82
//
MOLECULE: CC(OP(=O)(O)OP(=O)(O)OP(=O)(O)O)[C@H]1O[C@@H](n2cnc3c(N)ncnc32)[C@H](O)[C@@H]1O (stereo not given in full)
SYSTEM_NAME: S-adenosylmethionine synthase isoform type-2 (Rattus norvegicus) (UniProt P18298)
RECORDED_MEASUREMENT: 0.74
//
MOLECULE: CCCCNc1ncnc2c1ncn2C1O[C@H](COP(=O)(O)OP(=O)(O)OP(=O)(O)O)[C@@H](O)[C@H]1O (stereo not given in full)
SYSTEM_NAME: S-adenosylmethionine synthase isoform type-2 (Rattus norvegicus) (UniProt P18298)
RECORDED_MEASUREMENT: 0.26
//
MOLECULE: CSc1nc(N)c2ncn([C@@H]3O[C@H](COP(=O)(O)OP(=O)(O)OP(=O)(O)O)[C@@H](O)[C@H]3O)c2n1
SYSTEM_NAME: S-adenosylmethionine synthase isoform type-2 (Rattus norvegicus) (UniProt P18298)
RECORDED_MEASUREMENT: 0.23
//
MOLECULE: CSc1nc2c(N)ncnc2n1[C@@H]1O[C@H](COP(=O)(O)OP(=O)(O)OP(=O)(O)O)[C@@H](O)[C@H]1O
SYSTEM_NAME: S-adenosylmethionine synthase isoform type-2 (Rattus norvegicus) (UniProt P18298)
RECORDED_MEASUREMENT: 1.4

* * *

Target: S-adenosylmethionine synthase isoform type-2 (Rattus norvegicus)
Test: Inhibitory potency against rat Methionine adenosyltransferase II
Use 0.9 as the dividing line for Inhibition potency, with the line itself on the satisfied side and lower values as not satisfied.

COMPOUND: Nc1ncnc2c1ncn2C1O[C@H](COP(=O)(O)OP(=O)(O)OP(N)(=O)O)[C@@H](O)[C@H]1O (stereo partly drawn)
CLASSIFICATION: not satisfied

COMPOUND: CO[C@@H]1[C@H](O)[C@@H](COP(=O)(O)OP(=O)(O)OP(=O)(O)O)O[C@H]1n1cnc2c(N)ncnc21
CLASSIFICATION: satisfied

COMPOUND: Nc1ncnc2c1ncn2[C@@H]1O[C@H](COP(=O)(O)OP(=O)(O)NP(=O)(O)O)[C@@H](O)[C@H]1O
CLASSIFICATION: satisfied

COMPOUND: Nc1ncnc2c1ncn2[C@H]1C[C@H](O)[C@@H](COP(=O)(O)OP(=O)(O)OP(=O)(O)O)O1
CLASSIFICATION: not satisfied

COMPOUND: Nc1ncnc2c1ncn2[C@@H]1O[C@H](COP(=O)(O)CP(=O)(O)OP(=O)(O)O)[C@@H](O)[C@H]1O
CLASSIFICATION: not satisfied

COMPOUND: Nc1ncnc2c1nc(SCCC(N)C(=O)O)n2C1O[C@H](COP(=O)(O)OP(=O)(O)OP(=O)(O)O)[C@@H](O)[C@H]1O (stereo partly drawn)
CLASSIFICATION: not satisfied

COMPOUND: CCCC(OP(=O)(O)OP(=O)(O)OP(=O)(O)O)[C@H]1O[C@@H](n2cnc3c(N)ncnc32)[C@H](O)[C@@H]1O (stereo partly drawn)
CLASSIFICATION: satisfied
